Data origin, for the record: PubChem BioAssay AID520

IC50 overview
Target: N-formyl peptide receptor 2 (Homo sapiens) (UniProt P25090)
Sequence (P25090 whole entry, looked up): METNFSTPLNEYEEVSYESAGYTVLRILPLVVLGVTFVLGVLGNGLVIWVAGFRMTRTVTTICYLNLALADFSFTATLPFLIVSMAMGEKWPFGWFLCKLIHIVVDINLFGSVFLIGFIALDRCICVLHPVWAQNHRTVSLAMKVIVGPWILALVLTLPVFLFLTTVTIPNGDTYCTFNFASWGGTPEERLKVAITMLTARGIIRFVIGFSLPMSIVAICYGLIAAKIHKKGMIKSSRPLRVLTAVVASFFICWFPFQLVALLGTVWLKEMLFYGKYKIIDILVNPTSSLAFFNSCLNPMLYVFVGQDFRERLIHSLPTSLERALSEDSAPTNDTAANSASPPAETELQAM
Experiment: concentration-dependent FPRL1 ligand displacement – cell-based, FPR counter-screen, fluorescent ligand, dose response (AID 520)
Details: FPRL1-expressing cells, fluorescent ligand binding inhibition
Active and inactive are the calls of the source. No rule for the calls is given here.

{"Compound": "COCCN1C(=O)C(O)=C(C(=O)c2cccs2)C1c1ccccc1 (centres undefined)", "Tested on": "N-formyl peptide receptor 2 (Homo sapiens) (UniProt P25090)", "IC50": "> 66.7 µM (inactive)"}
{"Compound": "COc1ccc(/C(O)=C2\\C(=O)C(=O)N(Cc3ccco3)C2c2ccc(OC)cc2OC)cc1 (centres undefined)", "Tested on": "N-formyl peptide receptor 2 (Homo sapiens) (UniProt P25090)", "IC50": "> 66.7 µM (inactive)"}
{"Compound": "CSCCC1C(C#N)=C(N)Oc2n[nH]c(-c3cccs3)c21 (centres undefined)", "Tested on": "N-formyl peptide receptor 2 (Homo sapiens) (UniProt P25090)", "IC50": "> 66.7 µM (inactive)"}
{"Compound": "Cc1cc(N2C(=O)C(=O)/C(=C(/O)c3ccc(F)cc3)C2c2cccc(Br)c2)no1 (centres undefined)", "Tested on": "N-formyl peptide receptor 2 (Homo sapiens) (UniProt P25090)", "IC50": "> 66.7 µM (inactive)"}
{"Compound": "Cc1ccc(C2C(C(=O)c3sc(C)nc3C)=C(O)C(=O)N2CCN2CCOCC2)o1 (centres undefined)", "Tested on": "N-formyl peptide receptor 2 (Homo sapiens) (UniProt P25090)", "IC50": "> 66.7 µM (inactive)"}
{"Compound": "Cc1ccc(/C(O)=C2/C(=O)C(=O)N(CCN3CCOCC3)C2c2cccnc2)cc1 (centres undefined)", "Tested on": "N-formyl peptide receptor 2 (Homo sapiens) (UniProt P25090)", "IC50": "> 66.7 µM (inactive)"}
{"Compound": "COc1ccc(CCN2C(=O)C(O)=C(C(=O)c3ccco3)C2c2cccs2)cc1OC (centres undefined)", "Tested on": "N-formyl peptide receptor 2 (Homo sapiens) (UniProt P25090)", "IC50": "> 66.7 µM (inactive)"}
{"Compound": "CCOc1cccc(/C(O)=C2/C(=O)C(=O)N(Cc3cccnc3)C2c2ccco2)c1 (centres undefined)", "Tested on": "N-formyl peptide receptor 2 (Homo sapiens) (UniProt P25090)", "IC50": "> 66.7 µM (inactive)"}
{"Compound": "CCOc1ccc(/C(O)=C2/C(=O)C(=O)N(c3nc(C)c(C)s3)C2c2ccco2)cc1 (centres undefined)", "Tested on": "N-formyl peptide receptor 2 (Homo sapiens) (UniProt P25090)", "IC50": "> 66.7 µM (inactive)"}
{"Compound": "O=C(C1=C(O)C(=O)N(Cc2ccccc2)C1c1cccnc1)c1ccco1 (centres undefined)", "Tested on": "N-formyl peptide receptor 2 (Homo sapiens) (UniProt P25090)", "IC50": "> 66.7 µM (inactive)"}
{"Compound": "C=CCOc1ccc(C2C(C(=O)c3cccs3)=C(O)C(=O)N2c2nnc(C)s2)cc1 (centres undefined)", "Tested on": "N-formyl peptide receptor 2 (Homo sapiens) (UniProt P25090)", "IC50": "> 66.7 µM (inactive)"}
{"Compound": "COc1ccc(OC)c(C2C(C(=O)c3cccs3)=C(O)C(=O)N2c2cc(C)on2)c1 (centres undefined)", "Tested on": "N-formyl peptide receptor 2 (Homo sapiens) (UniProt P25090)", "IC50": "> 66.7 µM (inactive)"}
{"Compound": "CCOc1cccc(/C(O)=C2/C(=O)C(=O)N(Cc3ccco3)C2c2ccncc2)c1 (centres undefined)", "Tested on": "N-formyl peptide receptor 2 (Homo sapiens) (UniProt P25090)", "IC50": "> 66.7 µM (inactive)"}
{"Compound": "O=C(C1=C(O)C(=O)N(CCN2CCOCC2)C1c1ccccc1)c1cccs1 (centres undefined)", "Tested on": "N-formyl peptide receptor 2 (Homo sapiens) (UniProt P25090)", "IC50": "> 66.7 µM (inactive)"}
